Measured values drawn from ChEMBL document CHEMBL1201862 for this set.

System: HCT-116
assayOverview: NCI tumour cell line growth inhibition, 48 h
Calls of active or inactive are those of the source. Rule as the data show it: active = GI50 up to about 1.1 µM and inactive = higher. Where a SMILES comes first, the peptide text is derived from it. [ ]: non-standard residue; d: D form. The star is where a group is joined. Bn2Val = CC(C)[C@@H](C(=O)*)N(Cc1ccccc1)Cc1ccccc1; NHPiperonyl = c1cc2c(cc1CN*)OCO2; NMeV = CN[C@H](C(=O)O)C(C)C; dNMeA = CN[C@H](C)C(=O)O

molecule	GI50
CC1=C(C(=O)OCc2ccncc2)C(C2=C(C)SCCS2)C(C(=O)OCc2ccncc2)=C(C)N1	15.1 µM (inactive)
O=C(Nc1nnc(-c2ccccc2)o1)C(SC(=S)N1CCCCC1)c1ccccc1 (stereo not drawn)	13.4 µM (inactive)
O=C(Nc1nc(C23CC4CC(CC(C4)C2)C3)cs1)c1cc2c(ccc3ccccc32)oc1=O	> 100 µM (inactive)
Cc1cc2c3ccccc3n3c2c2c1OC1(C)CCC(C2C1)C3(C)C (stereo not drawn)	> 25 µM (inactive)
COc1ccc2cccc(C(=N)c3ccc(C)c4c3CCC4)c2c1	4.59 µM (inactive)
COc1cc2cc(C(=O)N3CC(COS(C)(=O)=O)c4ccc(O)cc43)[nH]c2c(OC)c1OC (stereo not drawn)	< 0.0001 µM (active)
O=C(Nc1ccc2nc(O)n[n+]([O-])c2c1)C(F)(F)F	> 100 µM (inactive)
CC(C)[C@H](NC(=O)[C@H](C(C)C)N(Cc1ccccc1)Cc1ccccc1)C(=O)N(C)[C@H](C(=O)N1CCC[C@H]1C(=O)N(C)[C@H](C)C(=O)NCc1ccc2c(c1)OCO2)C(C)C (Bn2Val-V[NMeV]P[dNMeA]-NHPiperonyl)	3.48 µM (inactive)
